# Tested on: Escherichia coli
# ASSAY OVERVIEW: Toxicity in wild type Escherichia coli AB1157 assessed as growth inhibition at 2000 ug after 24 hr by agar well diffusion method
# Format: organism-based
# CONDITION SET: in vivo
diameter of the inhibition zone (DIZ): recorded values

| STRUCTURE | diameter of the inhibition zone (DIZ) [cm] |
| --- | --- |
| Cc1ccc(-n2n[o+]c([O-])c2-c2nn3cc(-c4cc5cc(Cl)ccc5oc4=O)nc3s2)cc1 | 0 |
| O=c1oc2ccccc2cc1-c1cn2nc(-c3c([O-])[o+]nn3-c3ccccc3)sc2n1 | 0 |
| O=c1oc2ccc(Br)cc2cc1-c1cn2nc(-c3c([O-])[o+]nn3-c3ccc(Cl)cc3)sc2n1 | 0 |
| O=c1oc2ccccc2cc1-c1cn2nc(-c3c([O-])[o+]nn3-c3ccc(Cl)cc3)sc2n1 | 0 |
| O=c1oc2ccc(Br)cc2cc1-c1cn2nc(-c3c([O-])[o+]nn3-c3ccccc3)sc2n1 | 0 |
| COc1ccc(-n2n[o+]c([O-])c2-c2nn3cc(-c4cc5ccccc5oc4=O)nc3s2)cc1 | 0.8 |
| O=c1oc2ccc(Cl)cc2cc1-c1cn2nc(-c3c([O-])[o+]nn3-c3ccccc3)sc2n1 | 0 |
| O=c1oc2ccc(Cl)cc2cc1-c1cn2nc(-c3c([O-])[o+]nn3-c3ccc(Cl)cc3)sc2n1 | 0 |
| COc1ccc(-n2n[o+]c([O-])c2-c2nn3cc(-c4cc5cc(Br)ccc5oc4=O)nc3s2)cc1 | 0.8 |

* * *

# System: Escherichia coli
# ASSAY OVERVIEW: Toxicity in wild type Escherichia coli AB1157 assessed as growth inhibition after 24 hr by agar well diffusion method
# Type: organism-based
# CONDITION SET: in vivo

| STRUCTURE | MIC |
| --- | --- |
| O=c1oc2ccc(Cl)cc2cc1-c1cn2nc(-c3c([O-])[o+]nn3-c3ccc(Cl)cc3)sc2n1 | > 2 mg |
| COc1ccc(-n2n[o+]c([O-])c2-c2nn3cc(-c4cc5ccccc5oc4=O)nc3s2)cc1 | 1 mg |
| O=c1oc2ccc(Cl)cc2cc1-c1cn2nc(-c3c([O-])[o+]nn3-c3ccccc3)sc2n1 | > 2 mg |
| O=c1oc2ccccc2cc1-c1cn2nc(-c3c([O-])[o+]nn3-c3ccc(Cl)cc3)sc2n1 | > 2 mg |
| COc1ccc(-n2n[o+]c([O-])c2-c2nn3cc(-c4cc5cc(Cl)ccc5oc4=O)nc3s2)cc1 | 1 mg |
| O=c1oc2ccccc2cc1-c1cn2nc(-c3c([O-])[o+]nn3-c3ccccc3)sc2n1 | > 2 mg |
| Cc1ccc(-n2n[o+]c([O-])c2-c2nn3cc(-c4cc5ccccc5oc4=O)nc3s2)cc1 | > 2 mg |
| COc1ccc(-n2n[o+]c([O-])c2-c2nn3cc(-c4cc5cc(Br)ccc5oc4=O)nc3s2)cc1 | 1 mg |
| O=c1oc2ccc(Br)cc2cc1-c1cn2nc(-c3c([O-])[o+]nn3-c3ccccc3)sc2n1 | > 2 mg |
| O=c1oc2ccc(Br)cc2cc1-c1cn2nc(-c3c([O-])[o+]nn3-c3ccc(Cl)cc3)sc2n1 | > 2 mg |
| Cc1ccc(-n2n[o+]c([O-])c2-c2nn3cc(-c4cc5cc(Cl)ccc5oc4=O)nc3s2)cc1 | > 2 mg |
| Cc1ccc(-n2n[o+]c([O-])c2-c2nn3cc(-c4cc5cc(Br)ccc5oc4=O)nc3s2)cc1 | > 2 mg |
